The origin of these recorded values is patent US8796268B2.

target: Human PI3K alpha (Homo sapiens, UniProt P42336); construct: His (N); host or cells: SF9 insect cells (baculovirus); assay: Human PI3K alpha enzyme assay (HTRF); assay type: biochemical; details: concentration not given; b1387 states 1.1 μM for PI3K α and β; read-out: p110 alpha Percent Inhibition
Sequence (P42336 whole entry): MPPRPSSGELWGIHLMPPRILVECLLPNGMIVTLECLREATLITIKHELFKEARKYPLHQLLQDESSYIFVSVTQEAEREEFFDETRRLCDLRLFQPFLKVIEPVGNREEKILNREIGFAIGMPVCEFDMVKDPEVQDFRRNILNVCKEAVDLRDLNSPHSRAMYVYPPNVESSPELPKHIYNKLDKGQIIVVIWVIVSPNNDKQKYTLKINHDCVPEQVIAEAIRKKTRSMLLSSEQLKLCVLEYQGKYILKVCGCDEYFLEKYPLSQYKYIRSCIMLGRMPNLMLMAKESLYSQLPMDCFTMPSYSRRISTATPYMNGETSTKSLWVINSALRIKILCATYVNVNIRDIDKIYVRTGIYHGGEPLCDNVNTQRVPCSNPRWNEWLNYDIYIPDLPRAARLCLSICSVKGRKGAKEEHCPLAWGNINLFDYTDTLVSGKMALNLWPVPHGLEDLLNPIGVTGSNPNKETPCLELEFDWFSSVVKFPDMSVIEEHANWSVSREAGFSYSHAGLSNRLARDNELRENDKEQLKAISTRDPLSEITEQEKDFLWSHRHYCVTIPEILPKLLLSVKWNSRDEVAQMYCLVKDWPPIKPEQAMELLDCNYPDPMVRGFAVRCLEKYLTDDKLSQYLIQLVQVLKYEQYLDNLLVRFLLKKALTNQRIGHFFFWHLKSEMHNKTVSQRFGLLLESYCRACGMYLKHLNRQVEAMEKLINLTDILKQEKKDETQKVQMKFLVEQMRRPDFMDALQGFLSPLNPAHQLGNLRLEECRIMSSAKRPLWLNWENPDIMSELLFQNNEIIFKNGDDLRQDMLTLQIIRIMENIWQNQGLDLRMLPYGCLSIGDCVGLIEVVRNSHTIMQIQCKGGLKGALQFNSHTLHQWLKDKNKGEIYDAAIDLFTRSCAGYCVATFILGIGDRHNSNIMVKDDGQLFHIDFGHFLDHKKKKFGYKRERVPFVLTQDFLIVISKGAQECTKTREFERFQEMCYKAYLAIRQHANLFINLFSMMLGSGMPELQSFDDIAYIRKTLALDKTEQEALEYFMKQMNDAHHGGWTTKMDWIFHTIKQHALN
Sequence (P27986 whole entry partner): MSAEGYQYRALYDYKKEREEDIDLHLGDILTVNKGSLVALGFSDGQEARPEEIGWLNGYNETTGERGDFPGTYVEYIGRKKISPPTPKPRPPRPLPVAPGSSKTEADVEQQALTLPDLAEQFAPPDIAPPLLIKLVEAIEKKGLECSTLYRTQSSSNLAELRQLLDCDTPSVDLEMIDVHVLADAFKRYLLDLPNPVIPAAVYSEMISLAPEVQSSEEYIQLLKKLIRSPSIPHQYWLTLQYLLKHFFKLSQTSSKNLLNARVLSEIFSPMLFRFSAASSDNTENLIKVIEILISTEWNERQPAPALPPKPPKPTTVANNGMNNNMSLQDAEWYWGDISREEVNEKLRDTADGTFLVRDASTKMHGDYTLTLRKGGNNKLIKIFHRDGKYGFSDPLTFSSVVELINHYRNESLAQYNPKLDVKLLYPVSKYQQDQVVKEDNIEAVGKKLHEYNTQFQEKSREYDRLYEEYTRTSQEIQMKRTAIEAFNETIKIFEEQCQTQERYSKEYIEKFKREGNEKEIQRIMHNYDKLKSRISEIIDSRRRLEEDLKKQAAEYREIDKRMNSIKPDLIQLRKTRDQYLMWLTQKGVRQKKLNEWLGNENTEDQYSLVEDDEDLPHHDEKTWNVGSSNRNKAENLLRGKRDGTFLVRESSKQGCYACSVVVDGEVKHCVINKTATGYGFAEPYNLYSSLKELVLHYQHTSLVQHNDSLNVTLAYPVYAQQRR
The compounds listed here are annotated with their inhibition at 1.1 µM.
experimental_readout: inhibition at 1.1 µM

compound	target_or_test_system	experimental_value
CN[C@H]1CCN(C(c2ccc(Cl)cc2)c2cc(-c3ccnc(NC(C)=O)c3)sc2-c2nnc[nH]2)C1 (some centres unmarked)	Human PI3K alpha (Homo sapiens, UniProt P42336)	97%
O=C(O)c1sc(N2CCOCC2)nc1Cc1ccc2ccc(F)cc2c1	Human PI3K alpha (Homo sapiens, UniProt P42336)	34%
O=C(O)c1sc(N2CCOCC2)nc1Cc1ccc2cnccc2c1	Human PI3K alpha (Homo sapiens, UniProt P42336)	4%
N#Cc1c(-c2ccnnc2)sc(-c2nnc[nH]2)c1C(O)c1ccc2ccccc2c1 (centres unmarked)	Human PI3K alpha (Homo sapiens, UniProt P42336)	18%
Clc1cccc(Cc2nc(-c3ccncc3)sc2-c2nnc[nH]2)c1	Human PI3K alpha (Homo sapiens, UniProt P42336)	12%
